Assay: Pharmacokinetics test in rats (oral administration)
Assay type: in vivo, LEW/CrlCrlj rats
Settings: oral 2 mg/mL solution at 5 mL/kg, mean n = 4
Quantity name: AUCt (ng·h/mL)

Take a look at these entries with their results.
Would you mind telling me what AUCt value was observed for CC(=O)Nc1ccc(C2=NN(Cc3cccnc3)c3nnc(C)n3-c3sc(C)c(C)c32)cc1.Cl [1 Hydrochloride of Example 71] ? 114.07

Please give the measured AUCt for this compound: CC(=O)Nc1ccc(C2=NN(Cc3cccnc3)c3nnc(C)n3-c3sc(C)c(C)c32)cc1.CC(=O)Nc1ccc(C2=NN(Cc3cccnc3)c3nnc(C)n3-c3sc(C)c(C)c32)cc1.O=C(O)CCC(=O)O [0.5 Succinate of Example 71] 104.34

Find the recorded AUCt belonging to CC(=O)Nc1ccc(C2=NN(Cc3cccnc3)c3nnc(C)n3-c3sc(C)c(C)c32)cc1.Cc1ccc(S(=O)(=O)O)cc1 [1 Tosylate of Example 71] and report it. 95.75

(a) CC(=O)Nc1ccc(C2=NN(Cc3cccnc3)c3nnc(C)n3-c3sc(C)c(C)c32)cc1.O=C(O)/C=C\C(=O)O [1 Maleate of Example 71]
(b) CC(=O)Nc1ccc(C2=NN(Cc3cccnc3)c3nnc(C)n3-c3sc(C)c(C)c32)cc1.CC(=O)Nc1ccc(C2=NN(Cc3cccnc3)c3nnc(C)n3-c3sc(C)c(C)c32)cc1.O=C(O)/C=C/C(=O)O [0.5 Fumarate of Example 71]
// compare measured AUCt between a and b ; output the lower one Write down the label attached to your selection. b
(b: 31.38 ng·h/mL, a: 115.41 ng·h/mL)
